Molecular target: Substance-P receptor (Homo sapiens, UniProt P25103)
Sequence (P25103 whole entry): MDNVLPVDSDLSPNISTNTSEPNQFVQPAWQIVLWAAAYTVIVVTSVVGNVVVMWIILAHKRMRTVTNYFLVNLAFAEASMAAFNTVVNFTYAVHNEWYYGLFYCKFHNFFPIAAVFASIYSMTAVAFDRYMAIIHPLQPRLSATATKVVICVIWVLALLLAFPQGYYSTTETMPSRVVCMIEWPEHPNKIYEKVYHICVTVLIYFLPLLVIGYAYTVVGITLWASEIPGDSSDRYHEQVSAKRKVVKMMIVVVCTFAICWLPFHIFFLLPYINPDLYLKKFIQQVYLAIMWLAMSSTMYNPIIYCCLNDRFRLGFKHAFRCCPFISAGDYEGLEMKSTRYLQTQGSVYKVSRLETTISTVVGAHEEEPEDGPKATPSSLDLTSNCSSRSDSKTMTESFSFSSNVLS
Assay: Displacement of [125I]BH-SP from human tachykinin NK1 receptor expressed in IM9 cells after 30 mins by scintillation counting
measurementType: IC50 (nM)
Give just the numeric value; nM need not be written.

Using the record for COc1ccc(CN2CCC(=O)C(C(c3ccc(F)cc3)c3ccc(F)cc3)C2)c(OC)c1 (racemic) , report its IC50. 9.5

Using the record for O=C1CCN(Cc2ccc(C(F)(F)F)cc2)CC1C(c1ccc(F)cc1)c1ccc(F)cc1 (racemic) , report its IC50. 220

Using the record for N#Cc1ccccc1CN1CCC(=O)C(C(c2ccc(F)cc2)c2ccc(F)cc2)C1 (racemic) , report its IC50. 6.1

Using the record for O=C1CCN(Cc2ccccc2)CC1C(c1ccc(Cl)cc1)c1ccc(Cl)cc1 (racemic) , report its IC50. 97

* * *

Molecular target: Substance-P receptor (Homo sapiens)
Experiment: Displacement of [125I]BH-SP from human tachykinin NK1 receptor expressed in IM9 cells after 30 mins by scintillation counting
Would you mind telling me the reported IC50 of each entry?
Give just the numeric value; nM need not be written.

Using the record for O=C1CCN(Cc2ccccc2)CC1C(c1ccccc1)c1ccccc1 (racemic) , report its IC50. 97

Using the record for COc1ccc(Br)cc1CN1CCC(=O)C(C(c2ccc(F)cc2)c2ccc(F)cc2)C1 (single isomer, unassigned; (+)) , report its IC50. 1.5

Using the record for O=C1CCN(Cc2ccccc2C(F)(F)F)CC1C(c1ccc(F)cc1)c1ccc(F)cc1 (racemic) , report its IC50. 4.9

Using the record for COc1ccc(F)cc1CN1CCC(=O)C(C(c2ccc(F)cc2)c2ccc(F)cc2)C1 (racemic) , report its IC50. 4

Using the record for COc1ccc(OC(F)(F)F)cc1CN1CCC(=O)C(C(c2ccc(F)cc2)c2ccc(F)cc2)C1 (racemic) , report its IC50. 0.81

Using the record for COc1cccc(CN2CCC(=O)C(C(c3ccc(F)cc3)c3ccc(F)cc3)C2)c1OC (racemic) , report its IC50. 55

Using the record for O=C1CCN(Cc2ccccc2O)CC1C(c1ccc(F)cc1)c1ccc(F)cc1 (racemic) , report its IC50. 280
